MEASURED ON: ΔF508-CFTR (Homo sapiens, UniProt P13569, DEL508-508)
Construct: expressed in transfected cells
Sequence (P13569 with tags, fused parts or gaps DEL508-508): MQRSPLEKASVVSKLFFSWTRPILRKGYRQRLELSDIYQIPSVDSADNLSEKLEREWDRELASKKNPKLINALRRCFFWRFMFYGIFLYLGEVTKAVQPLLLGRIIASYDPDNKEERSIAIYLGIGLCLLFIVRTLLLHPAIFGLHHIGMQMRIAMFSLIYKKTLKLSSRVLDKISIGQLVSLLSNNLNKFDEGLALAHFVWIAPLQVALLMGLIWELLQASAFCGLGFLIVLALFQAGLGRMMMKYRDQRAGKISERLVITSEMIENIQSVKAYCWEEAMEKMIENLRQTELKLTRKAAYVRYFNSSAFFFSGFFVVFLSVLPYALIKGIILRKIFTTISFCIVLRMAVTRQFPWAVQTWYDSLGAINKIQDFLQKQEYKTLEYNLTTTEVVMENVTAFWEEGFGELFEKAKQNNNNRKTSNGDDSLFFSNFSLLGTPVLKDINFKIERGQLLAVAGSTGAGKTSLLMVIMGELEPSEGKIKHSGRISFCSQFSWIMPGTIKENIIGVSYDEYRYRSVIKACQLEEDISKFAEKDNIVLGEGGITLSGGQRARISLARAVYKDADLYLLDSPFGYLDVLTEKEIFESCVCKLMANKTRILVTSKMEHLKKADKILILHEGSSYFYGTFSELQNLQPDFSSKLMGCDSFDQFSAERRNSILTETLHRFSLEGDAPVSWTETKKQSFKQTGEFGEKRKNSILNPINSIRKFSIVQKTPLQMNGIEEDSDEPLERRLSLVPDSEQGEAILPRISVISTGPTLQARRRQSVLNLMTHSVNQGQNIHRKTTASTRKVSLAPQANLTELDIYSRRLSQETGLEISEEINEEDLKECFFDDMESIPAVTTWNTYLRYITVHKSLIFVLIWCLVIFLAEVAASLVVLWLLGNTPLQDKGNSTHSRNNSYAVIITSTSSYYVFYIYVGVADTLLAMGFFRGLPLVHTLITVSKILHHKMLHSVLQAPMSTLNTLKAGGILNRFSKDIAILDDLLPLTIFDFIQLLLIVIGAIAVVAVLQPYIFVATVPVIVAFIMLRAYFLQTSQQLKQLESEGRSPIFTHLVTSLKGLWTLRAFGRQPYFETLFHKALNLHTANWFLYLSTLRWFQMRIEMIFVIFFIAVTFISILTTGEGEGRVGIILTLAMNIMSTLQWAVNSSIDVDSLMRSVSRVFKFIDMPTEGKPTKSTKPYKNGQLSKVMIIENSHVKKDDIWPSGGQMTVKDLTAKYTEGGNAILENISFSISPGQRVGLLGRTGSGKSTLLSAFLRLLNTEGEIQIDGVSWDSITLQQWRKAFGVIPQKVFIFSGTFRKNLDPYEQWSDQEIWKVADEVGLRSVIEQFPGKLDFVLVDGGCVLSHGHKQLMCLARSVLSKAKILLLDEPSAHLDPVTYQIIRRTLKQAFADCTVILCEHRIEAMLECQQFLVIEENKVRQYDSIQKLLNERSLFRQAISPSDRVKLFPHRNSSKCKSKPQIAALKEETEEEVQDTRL
TEST DETAILS: Membrane potential optical assay for ΔF508-CFTR correction (single-addition HTS format)
Assay type: cell-based
MEASUREMENT SETUP: NIH3T3 mouse fibroblasts stably expressing ΔF508-CFTR; 16-24 hrs with compound; activation with 10 μM forskolin and 20 μM genistein; read-out: BinnedMaxEfficacy (PercentActivity)
molecules and their reported Emax

Recorded Emax, per entry:
In [3]: df
Out[3]:
                                   molecule      result
0  COc1ccccc1Cc1ccc(NC(=O)C2(c3ccc4c(c3)OCO4)CC2)cn1 [Compound 3]      > 100%
1  Cc1ncc(NC(=O)C2(c3ccc4c(c3)OCO4)CC2)cc1-c1cccc(S(=O)(=O)N(C)C)c1 [Compound 6]  25 to 100%
2  O=C(Nc1ccc(-c2ccccc2Cl)nc1)C1(c2ccc3c(c2)OCO3)CC1 [Compound 7]      > 100%
3  O=C(Nc1ccc(Cc2ccccc2Cl)nc1)C1(c2ccc3c(c2)OCO3)CC1 [Compound 37]      > 100%
4  O=C(Nc1cncc(Cc2ccccc2)n1)C1(c2ccc3c(c2)OCO3)CC1 [Compound 27]      > 100%

IN: Give recorded Emax with ΔF508-CFTR (Homo sapiens, UniProt P13569, DEL508-508) for the following molecule: COc1cc(NC(=O)C2(c3ccc4c(c3)OCO4)CC2)nc(OC)n1 [Compound 22]
OUT: > 100%

IN: Form field - read-out: Emax; system: ΔF508-CFTR (Homo sapiens, UniProt P13569, DEL508-508); submitted item: Cc1ncc(NC(=O)C2(c3ccc4c(c3)OCO4)CC2)cc1-c1ccc(C(N)=O)cc1 [Compound 39]
OUT: 25 to 100%

IN: # query: Emax | item Cc1cc(O)nc(NC(=O)C2(c3ccc4c(c3)OCO4)CC2)n1 [Compound 35] | system: ΔF508-CFTR (Homo sapiens, UniProt P13569, DEL508-508)
OUT: 25 to 100%

IN: Observed Emax on ΔF508-CFTR (Homo sapiens, UniProt P13569, DEL508-508) for COc1ccccc1Nc1cnc(NC(=O)C2(c3ccc4c(c3)OCO4)CC2)cn1 [Compound 2] , please.
OUT: > 100%

IN: Tell me reported Emax for Cc1ncc(NC(=O)C2(c3ccc4c(c3)OCO4)CC2)cc1-c1ccccc1 [Compound 42] , tested with ΔF508-CFTR (Homo sapiens, UniProt P13569, DEL508-508).
OUT: > 100%

IN: Emax of O=C(N(c1ccnc(C(F)(F)F)c1)c1ccccn1)C1(c2ccc3c(c2)OCO3)CC1 [Compound 41] on ΔF508-CFTR (Homo sapiens, UniProt P13569, DEL508-508)?
OUT: 25 to 100%

IN: Notebook entry, ΔF508-CFTR (Homo sapiens, UniProt P13569, DEL508-508) assay: Emax of O=C(Nc1cnc(Cc2ccccc2)cn1)C1(c2ccc3c(c2)OCO3)CC1 [Compound 12] = ?
OUT: > 100%

IN: Requested read-out Emax, target or system ΔF508-CFTR (Homo sapiens, UniProt P13569, DEL508-508), entry O=C(Nc1cnc(Cc2ccccc2Cl)cn1)C1(c2ccc3c(c2)OCO3)CC1 [Compound 1]
OUT: > 100%

IN: Query Emax on ΔF508-CFTR (Homo sapiens, UniProt P13569, DEL508-508) for Cc1ncc(NC(=O)C2(c3ccc4c(c3)OCO4)CC2)cc1-c1cccc(C(=O)O)c1 [Compound 38]
OUT: 25 to 100%

IN: Given the entry COc1ccc(C2(C(=O)Nc3cnccn3)CC2)cc1 [Compound 21] , what Emax was observed with ΔF508-CFTR (Homo sapiens, UniProt P13569, DEL508-508)?
OUT: 25 to 100%

IN: Record lookup: for ΔF508-CFTR (Homo sapiens, UniProt P13569, DEL508-508), what Emax belongs to Cc1cnc(NC(=O)C2(c3ccc4c(c3)OC(F)(F)O4)CC2)nc1-c1ccc(C(=O)O)cc1 [Compound 11] ?
OUT: 25 to 100%

IN: Query for ΔF508-CFTR (Homo sapiens, UniProt P13569, DEL508-508): what Emax does the record show for Cc1ncc(NC(=O)C2(c3ccc4c(c3)OCO4)CC2)cc1-c1ccc(S(=O)(=O)N(C)C)cc1 [Compound 8] ?
OUT: > 100%

====

MEASURED ON: ΔF508-CFTR (Homo sapiens, UniProt P13569, DEL508-508)
Construct: expressed in transfected cells
TEST DETAILS: Membrane potential optical assay for ΔF508-CFTR correction (single-addition HTS format)
Assay type: cell-based
MEASUREMENT SETUP: NIH3T3 mouse fibroblasts stably expressing ΔF508-CFTR; 16-24 hrs with compound; activation with 10 μM forskolin and 20 μM genistein; read-out: BinnedMaxEfficacy (PercentActivity)
Measured Emax, listed per entry.

In [3]: df
Out[3]:
                           structure_string  measure      result
0  COc1ccccc1-c1ccc(NC(=O)C2(c3ccc4c(c3)OCO4)CC2)cn1     Emax      > 100%
1  Cc1ncc(NC(=O)C2(c3ccc4c(c3)OCO4)CC2)cc1-c1cccc(S(N)(=O)=O)c1     Emax  25 to 100%
2  CC(C)c1ccc(NC(=O)C2(c3ccc4c(c3)OCO4)CC2)cn1     Emax  25 to 100%
3  N#Cc1ccc(NC(=O)C2(c3ccc4c(c3)OCO4)CC2)cn1     Emax  25 to 100%
4  COc1ccccc1Cc1ccc(NC(=O)C2(c3ccc4c(c3)OCO4)CC2)nn1     Emax      > 100%
5  Cc1cccc(Oc2ccc(NC(=O)C3(c4ccc5c(c4)OCO5)CC3)cn2)c1C     Emax  25 to 100%
6  COc1ccccc1Cc1cncc(NC(=O)C2(c3ccc4c(c3)OCO4)CC2)n1     Emax      > 100%

Now for another entry.
IN: I'd like to know its Emax. The compound in question is COc1ccccc1Nc1ccc(NC(=O)C2(c3ccc4c(c3)OCO4)CC2)cn1
OUT: > 100%

====

MEASURED ON: ΔF508-CFTR (Homo sapiens, UniProt P13569, DEL508-508)
Construct: expressed in transfected cells
TEST DETAILS: Membrane potential optical assay for ΔF508-CFTR correction (single-addition HTS format)
Assay type: cell-based
MEASUREMENT SETUP: NIH3T3 mouse fibroblasts stably expressing ΔF508-CFTR; 16-24 hrs with compound; activation with 10 μM forskolin and 20 μM genistein; read-out: BinnedMaxEfficacy (PercentActivity)
Parameter Emax: see the listing below.

>>> df
                                   compound  measure      result
0  Cc1c(NC(=O)C2(c3ccc4c(c3)OC(F)(F)O4)CC2)ccnc1-c1cccc(C(=O)O)c1 [Compound 9]     Emax  25 to 100%
1  O=C(Nc1ccc(Cc2ccccc2)nn1)C1(c2ccc3c(c2)OCO3)CC1 [Compound 44]     Emax  25 to 100%
2  Cc1ncc(NC(=O)C2(c3ccc4c(c3)OCO4)CC2)cc1-c1cccc(CO)c1 [Compound 40]     Emax      > 100%

IN: Any idea what its Emax is? The compound is COc1ccccc1Cc1cc(NC(=O)C2(c3ccc4c(c3)OCO4)CC2)ccn1 [Compound 47]
OUT: > 100%

IN: Could you tell me which Emax is on file for CNS(=O)(=O)c1ccc(-c2cc(NC(=O)C3(c4ccc5c(c4)OCO5)CC3)cnc2C)cc1 [Compound 30] ?
OUT: > 100%

IN: Query (compound): O=C(Nc1ncc2c(n1)-c1ccoc1CC2)C1(c2ccc3c(c2)OCO3)CC1 [Compound 23] ; field requested: Emax
OUT: 25 to 100%

IN: Dear colleague, I am looking for the recorded Emax of the following compound: COc1ccc(-c2nc(NC(=O)C3(c4ccc5c(c4)OC(F)(F)O5)CC3)ncc2C)cn1 [Compound 10]
OUT: 25 to 100%

IN: If you can, please state the reported Emax value of O=C(Nc1ccnc(Cc2ccccc2)c1)C1(c2ccc3c(c2)OCO3)CC1 [Compound 36] .
OUT: > 100%

IN: Look up Emax for this compound: Cc1ncc(NC(=O)C2(c3ccc4c(c3)OCO4)CC2)cc1-c1cccc(C(N)=O)c1 [Compound 17]
OUT: 25 to 100%

IN: # query: Emax of entry O=C(Nc1ccc(CC2CCCCC2)nn1)C1(c2ccc3c(c2)OCO3)CC1 [Compound 5]
OUT: 25 to 100%

IN: State the recorded Emax for this entry: CC(Oc1ccc(Cl)cc1)c1ccnc(NC(=O)C2(c3ccc4c(c3)OCO4)CC2)n1 (centres unmarked) [Compound 14]
OUT: > 100%

IN: Would you mind telling me what Emax value was observed for Cc1cnc(NC(=O)C2(c3ccc4c(c3)OC(F)(F)O4)CC2)nc1-c1ccc(=O)[nH]c1 [Compound 28] ?
OUT: 25 to 100%

IN: # input compound: O=C(Nc1cncc(Cc2ccccc2Cl)n1)C1(c2ccc3c(c2)OCO3)CC1 [Compound 13] ; wanted: its Emax
OUT: > 100%

IN: Give the measured Emax of O=C(Nc1ccc(Cc2ccccc2Cl)nn1)C1(c2ccc3c(c2)OCO3)CC1 [Compound 46] .
OUT: 25 to 100%

IN: Given the entry O=C(Nc1ccc(-c2ccccc2)nc1)C1(c2ccc3c(c2)OCO3)CC1 [Compound 32] , report its measured Emax.
OUT: > 100%

IN: For Cc1ccc(S(=O)(=O)c2ncccc2NC(=O)C2(c3ccc4c(c3)OCO4)CC2)cc1 [Compound 18] , what is its reported Emax?
OUT: > 100%

IN: Entry O=C(Nc1ccc(Cc2ccccc2)nc1)C1(c2ccc3c(c2)OCO3)CC1 [Compound 19] : reported Emax = ?
OUT: > 100%
